This listing pairs compounds with measured Relative value of radioactivity (%).
- Tested system: chondroitin polymerase (Escherichia coli)
- Construct: primers having restriction enzyme cut sites and interposing the corresponding ORF moiety; made in house; host or cells: Escherichia coli TOP10, vector pTrcHisC, IPTG induction, Ni-NTA purification
- Procedure details: Analysis of influence by metal ions and the like on enzyme activity
- Format: biochemical, Escherichia coli strain K4
- Experimental context: metal salt or EDTA added instead of MnCl2; radioactivity in addition of MnCl2 defined as 100%
The answer consists of two parts: a number and, after it, its unit.

Worked examples follow.
[[record]]
compound = "[Cl][Fe][Cl] [FeCl2]"
measurement_kind = "Relative value of radioactivity (%)"
result = "30.6%"

[[record]]
compound = "[Cl][Cu][Cl] [CuCl2]"
measurement_kind = "Relative value of radioactivity (%)"
result = "0.0%"

[[record]]
compound = "[Ca+2].[Cl-].[Cl-] [CaCl2]"
measurement_kind = "Relative value of radioactivity (%)"
result = "0.0%"

[[record]]
compound = "[Cl][Mn][Cl] [MnCl2]"
measurement_kind = "Relative value of radioactivity (%)"
result = "100.0%"


Problem: Which measured Relative value of radioactivity (%) value corresponds to [Cl-].[Cl-].[Mg+2] [MgCl2] ?
Result: 30.7%

Problem: Name the reported Relative value of radioactivity (%) value associated with the compound O=C(O)CN(CCN(CC(=O)O)CC(=O)O)CC(=O)O [EDTA, ethylenediaminetetraacetic acid]
Result: 0.0%
